Documented TGI across a set of compounds
system: NCI/ADR-RES ovarian; experiment: NCI tumour cell line growth inhibition, 48 h

COC(=O)CCCNC(=O)C(=O)c1c(O)c(O)c(C(C)C)c2cc(C)c(-c3c(C)cc4c(C(C)C)c(O)c(O)c(C(=O)C(=O)NCCCC(=O)OC)c4c3O)c(O)c12: 16.6 µM
CC1=CC2=C(C#N)C(=O)OC2(C)C(c2ccccc2)C1 (stereo unspecified): > 100 µM
CCCCn1c(C)c2c(c1C)C(=O)N(CCN1CCN(c3ccccc3Cl)CC1)C2=O: > 100 µM
CC1(C)CN=C(Nc2ccc(F)c(Cl)c2)S1: > 100 µM
NC(Cc1c[nH]c2cc(F)ccc12)C(=O)O (stereo unspecified): > 2500 µM
CC1(C)CC[C@]2(C(=O)O)CC[C@]3(C)C(=CC[C@@H]4[C@@]5(C)CC[C@H](OC6OC(CO)C(O)C(O)C6O)C(C)(C)[C@@H]5CC[C@]43C)[C@@H]2C1 (stereo partly specified): 22.9 µM
CCN(CC)CCOc1ccc(Cc2ccccc2)cc1: > 100 µM
COc1ccc2c(c1)C(=O)[C@@](Nc1ccc(C=O)cc1)(OC)[C@@](OC)(c1ccc([N+](=O)[O-])cc1)O2: > 10 µM
Clc1nc(-c2ccccc2)nc(Cl)c1Cl: 61.3 µM
C#CCOC(=O)[C@@H](C)c1ccc2cc(OC)ccc2c1: > 100 µM

**Query** Recorded TGI for CC(C)C[C@H](NC(=O)CCc1cccc2ccccc12)B(O)O with NCI/ADR-RES ovarian, please?
**Result** 11.7 µM
